Please respond with reported concentration at 2 h for every item in the list.
# Experiment notes: in vivo
# Set-up: species or system Sprague-Dawley (SD) rats
# Protocol conditions: Sprague-Dawley, plasma; 2 h after oral CNP, rat
Answer in ng/mL, number only, no unit symbol.

Ask | Tell me the measured concentration at 2 h of CC(C)=CCC[C@](C)(O[C@@H]1O[C@H](CO)[C@@H](O)[C@H](O)[C@H]1O)[C@H]1CC[C@]2(C)[C@@H]1[C@H](O)C[C@@H]1[C@@]3(C)CC[C@H](O)C(C)(C)[C@@H]3[C@@H](O[C@@H]3O[C@H](CO)[C@@H](O)[C@H](O)[C@H]3O)C[C@]12C [GRg1, ginsenoside Rg1] , please.
Reply | 0.4

Ask | Quick one: concentration at 2 h of CC(C)=CCC[C@](C)(O[C@@H]1O[C@H](CO[C@@H]2O[C@H](CO)[C@@H](O)[C@H](O)[C@H]2O)[C@@H](O)[C@H](O)[C@H]1O)[C@H]1CC[C@]2(C)[C@@H]1[C@H](O)C[C@@H]1[C@@]3(C)CC[C@H](O[C@@H]4O[C@H](CO)[C@@H](O)[C@H](O)[C@H]4O[C@@H]4O[C@H](CO)[C@@H](O)[C@H](O)[C@H]4O)C(C)(C)[C@@H]3CC[C@]12C [GRb1, ginsenoside Rb1] ?
Reply | 60.5

Ask | Please give the measured concentration at 2 h for this compound: CC(C)=CCC[C@](C)(O[C@@H]1O[C@H](CO)[C@@H](O)[C@H](O)[C@H]1O)[C@H]1CC[C@]2(C)[C@@H]1[C@H](O)C[C@@H]1[C@@]3(C)CC[C@H](O)C(C)(C)[C@@H]3[C@@H](O[C@@H]3O[C@H](CO)[C@@H](O)[C@H](O)[C@H]3O[C@@H]3OC[C@@H](O)[C@H](O)[C@H]3O)C[C@]12C [NGR1, notoginsenoside R1]
Reply | 0.32

Ask | Look up concentration at 2 h: CC(C)=CCC[C@](C)(O[C@@H]1O[C@H](CO)[C@@H](O)[C@H](O)[C@H]1O)[C@H]1CC[C@]2(C)[C@@H]1[C@H](O)C[C@@H]1[C@@]3(C)CC[C@H](O)C(C)(C)[C@@H]3[C@@H](O[C@@H]3O[C@H](CO)[C@@H](O)[C@H](O)[C@H]3O[C@@H]3O[C@@H](C)[C@H](O)[C@@H](O)[C@H]3O)C[C@]12C [GRe, ginsenoside Re]
Reply | 0.23

Ask | I'd like to know its concentration at 2 h. The compound in question is CC(C)=CCC[C@](C)(O[C@@H]1O[C@H](CO)[C@@H](O)[C@H](O)[C@H]1O)[C@H]1CC[C@]2(C)[C@@H]1[C@H](O)C[C@@H]1[C@@]3(C)CC[C@H](O[C@@H]4O[C@H](CO)[C@@H](O)[C@H](O)[C@H]4O[C@@H]4O[C@H](CO)[C@@H](O)[C@H](O)[C@H]4O)C(C)(C)[C@@H]3CC[C@]12C [GRd, ginsenoside Rd]
Reply | 17.6
